Entry source: patent US6156724A

Measured cytoxicity to lymphocytes LcV, LC50 accompanies every entry in the list below.
Tested on: Balb/c splenocytes (resting lymphocytes)
assayProcedure: Lymphocyte viability (LcV) assay
Type: cell-based, murine
setupConditions: unstimulated Balb/c splenocytes, MTT; highest concentration 10 μg/mL
Numbered stars: 1 amine (or outer) side, 2 acyl side, 3 side chain; on linkers, the order of the positions; unused ones are H or OH. Bridge positions count the residues as written; N and C are the ends. Square brackets hold non-standard residues; d marks the D form. Peptide text beside a SMILES is read from it. * marks the point of attachment. X1 = CC[C@H](C)[C@@H](N[*:1])[C@@H](O)CC(=O)O[C@H](C(=O)[C@H](C)C(=O)[*:2])C(C)C; X3 = CC[C@H](C)[C@H](N[*:1])[C@@H](O)CC(=O)O[C@H](C(=O)[C@H](C)C(=O)[*:2])C(C)C; NMeY = CN[C@@H](Cc1ccc(O)cc1)C(=O)O; dNMeL = CN[C@H](CC(C)C)C(=O)O; pGlu = O=C1CC[C@@H](C(=O)O)N1; Isobutyryl = CC(C)C(=O)*; Cbz = O=C(OCc1ccccc1)*; Lac = C[C@H](O)C(=O)O

Answered cases to consult:
CC[C@H](C)[C@H]1NC(=O)[C@@H](NC(=O)[C@@H](CC(C)C)N(C)C(=O)[C@H]2CCCN2C(=O)C(C)C)[C@@H](C)OC(=O)[C@H](Cc2ccc(OC)cc2)N(C)C(=O)[C@@H]2CCCN2C(=O)[C@H](CC(C)C)NC(=O)[C@@H](C)C(=O)[C@H](C(C)C)OC(=O)C[C@@H]1O [Compound 34, [Isobutyryl^9, D-Pro^8] Didemnin B] (Isobutyryl-[dP][dNMeL]T[X1]LP[NMeY](Me); ester 3-C) = 6.20 µg/mL
CC[C@H](C)[C@@H]1NC(=O)[C@@H](NC(=O)[C@@H](CC(C)C)N(C)C(=O)OCc2ccccc2)[C@@H](C)OC(=O)[C@H](Cc2ccc(OC)cc2)N(C)C(=O)[C@@H]2CCCN2C(=O)[C@H](CC(C)C)NC(=O)[C@@H](C)C(=O)[C@H](C(C)C)OC(=O)C[C@@H]1O [Compound 6, Z-[(3S,4S,5S)-Ist^2]Didemnin A] (Cbz-[dNMeL]T[X3]LP[NMeY](Me); ester 2-C) = > 10 µg/mL

Now look at this entry.
So what's the measured cytoxicity to lymphocytes LcV, LC50 for this one? CC[C@H](C)[C@H]1NC(=O)[C@@H](NC(=O)[C@@H](CC(C)C)N(C)C(=O)[C@@H]2CCCN2C(=O)[C@H](C)OC(=O)[C@H](CCC(N)=O)NC(=O)[C@H](CCC(N)=O)NC(=O)[C@@H]2CCC(=O)N2)[C@@H](C)OC(=O)[C@H](Cc2ccc(OC)cc2)N(C)C(=O)[C@@H]2CCCN2C(=O)[C@H](CC(C)C)NC(=O)[C@@H](C)C(=O)[C@H](C(C)C)OC(=O)C[C@@H]1O [Compound 39, Didemnin E] ([pGlu]QQ[Lac]P[dNMeL]T[X1]LP[NMeY](Me); ester 7-C)
> 10 µg/mL

###

Test system: Balb/c splenocytes (resting lymphocytes)
assayProcedure: Lymphocyte viability (LcV) assay
Type: cell-based, murine
setupConditions: unstimulated Balb/c splenocytes, MTT
Numbered stars: 1 amine (or outer) side, 2 acyl side, 3 side chain; on linkers, the order of the positions; unused ones are H or OH. Bridge positions count the residues as written; N and C are the ends. Square brackets hold non-standard residues; d marks the D form. Peptide text beside a SMILES is read from it. * marks the point of attachment. X1 = CC[C@H](C)[C@@H](N[*:1])[C@@H](O)CC(=O)O[C@H](C(=O)[C@H](C)C(=O)[*:2])C(C)C; NMeY = CN[C@@H](Cc1ccc(O)cc1)C(=O)O; dNMeL = CN[C@H](CC(C)C)C(=O)O; pGlu = O=C1CC[C@@H](C(=O)O)N1; Pyruvoyl = CC(=O)C(=O)*; Lac = C[C@H](O)C(=O)O
Measured cytoxicity to lymphocytes LcV, LC50 accompanies every entry in the list below.

CC[C@H](C)[C@H]1NC(=O)[C@@H](NC(=O)[C@@H](CC(C)C)N(C)C(=O)[C@@H]2CCCN2C(=O)C(C)=O)[C@@H](C)OC(=O)[C@H](Cc2ccc(OC)cc2)N(C)C(=O)[C@@H]2CCCN2C(=O)[C@H](CC(C)C)NC(=O)[C@@H](C)C(=O)[C@H](C(C)C)OC(=O)C[C@@H]1O [Compound 30, dehydrodidemnin B] (Pyruvoyl-P[dNMeL]T[X1]LP[NMeY](Me); ester 3-C) = 2.60 µM
CC[C@H](C)[C@@H](NC(=O)[C@@H](NC(=O)[C@@H](CC(C)C)NC)[C@@H](C)O)[C@@H](O)CC(=O)O[C@H](C(=O)[C@H](C)C(=O)N[C@@H](CC(C)C)C(=O)N1CCC[C@H]1C(=O)N(C)[C@@H](Cc1ccc(OC)cc1)C(=O)O)C(C)C [Compound 17, Acyclodidemnin A] (H-[dNMeL]T[X1]LP[NMeY](Me)-OH) = > 10.4 µM

Now look at this entry.
So what's the measured cytoxicity to lymphocytes LcV, LC50 for this one? CC[C@H](C)[C@H]1NC(=O)[C@@H](NC(=O)[C@@H](CC(C)C)N(C)C(=O)[C@@H]2CCCN2C(=O)[C@H](C)OC(=O)[C@H](CCC(N)=O)NC(=O)[C@H](CCC(N)=O)NC(=O)[C@@H]2CCC(=O)N2)[C@@H](C)OC(=O)[C@H](Cc2ccc(OC)cc2)N(C)C(=O)[C@@H]2CCCN2C(=O)[C@H](CC(C)C)NC(=O)[C@@H](C)C(=O)[C@H](C(C)C)OC(=O)C[C@@H]1O [Compound 39, Didemnin E] ([pGlu]QQ[Lac]P[dNMeL]T[X1]LP[NMeY](Me); ester 7-C)
> 6.77 µM
